- PROCEDURE TEXT: Unbound intrinsic clearance in human hepatocytes
- Type: ADME, cell-based, Hepatocyte
Is CL free at least 400 mL/min/kg? Then yes. If not, no.

> print(dat)
                                test.smiles  classification
1  O=C(Nc1ccc(F)cc1)C1(c2ccc(-c3cnc(C(F)(F)F)cc3CO)cc2)CCC1              no
2  O=C(Nc1ccc(F)cc1)C1(c2ccc(-c3cnc(C(F)(F)F)cc3CO)cc2)COC1              no
3  CC(C)(O)c1cc(C(F)(F)F)ncc1-c1ccc(C2(C(=O)Nc3ccc(F)cc3)COC2)cc1              no
4  O=C(Nc1ccc(F)cc1)C1(c2ccc(-c3cnc(C(F)(F)F)cc3CO)cc2)CC(F)(F)C1              no
5  Cc1cc(C(F)(F)F)ncc1-c1ccc(C2(C(=O)Nc3ccc(F)cc3)COC2)cc1              no
6  Cc1cc(C2CC2)ncc1-c1ccc(C2(C(=O)Nc3ccc(F)cc3)COC2)cc1              no
7  O=C(Nc1ccc(F)cc1)C1(c2ccc(-c3ccc(C4CC4)nc3)cc2)COC1             yes
8  O=C(Nc1ccc(F)cc1)C1(c2ccc(-c3nc(C4CC4)no3)cc2)COC1              no
9  O=C(Nc1ccc(C2(C(=O)Nc3ccc(F)cc3)COC2)cc1)c1cccc(Cl)c1             yes

----------
Below are IC50 values measured for UniProtKB Q12809.
Sequence (Q12809 whole entry): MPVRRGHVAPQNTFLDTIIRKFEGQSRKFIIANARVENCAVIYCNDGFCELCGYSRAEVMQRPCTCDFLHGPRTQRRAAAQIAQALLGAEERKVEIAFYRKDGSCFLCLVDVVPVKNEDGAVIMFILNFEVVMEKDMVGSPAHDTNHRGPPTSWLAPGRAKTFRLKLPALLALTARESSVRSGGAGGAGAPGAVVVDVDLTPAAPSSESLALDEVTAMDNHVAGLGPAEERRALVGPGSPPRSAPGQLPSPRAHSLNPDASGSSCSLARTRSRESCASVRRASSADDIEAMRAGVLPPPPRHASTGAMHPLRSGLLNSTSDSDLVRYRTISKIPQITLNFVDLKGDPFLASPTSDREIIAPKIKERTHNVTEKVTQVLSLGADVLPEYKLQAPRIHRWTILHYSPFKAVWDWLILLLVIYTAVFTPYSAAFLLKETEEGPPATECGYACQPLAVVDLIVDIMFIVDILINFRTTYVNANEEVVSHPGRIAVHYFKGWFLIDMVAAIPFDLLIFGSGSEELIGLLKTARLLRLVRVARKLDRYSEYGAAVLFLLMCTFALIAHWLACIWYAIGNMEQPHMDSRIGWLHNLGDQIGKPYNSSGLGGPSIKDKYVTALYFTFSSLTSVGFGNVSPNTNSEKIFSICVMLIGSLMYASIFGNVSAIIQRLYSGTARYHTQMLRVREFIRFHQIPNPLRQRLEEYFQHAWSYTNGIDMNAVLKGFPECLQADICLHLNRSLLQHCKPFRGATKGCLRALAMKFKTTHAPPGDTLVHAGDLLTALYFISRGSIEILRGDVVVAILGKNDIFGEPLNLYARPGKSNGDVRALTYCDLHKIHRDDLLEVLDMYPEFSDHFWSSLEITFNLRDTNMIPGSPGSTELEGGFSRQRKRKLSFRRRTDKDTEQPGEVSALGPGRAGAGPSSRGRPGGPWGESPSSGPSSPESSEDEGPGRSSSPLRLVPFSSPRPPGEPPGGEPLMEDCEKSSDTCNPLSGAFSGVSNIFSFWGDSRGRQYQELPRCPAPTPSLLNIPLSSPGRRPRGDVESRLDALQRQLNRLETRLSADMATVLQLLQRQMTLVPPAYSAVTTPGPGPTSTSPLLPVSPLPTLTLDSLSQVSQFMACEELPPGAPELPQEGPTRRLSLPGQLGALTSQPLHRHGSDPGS
OUTCOME MEASURE: IC50

> print(dat)
                                test.smiles   result
1  O=C(Nc1ccc(F)cc1)C1(c2ccc(-c3nc(C4CC4)no3)cc2)COC1  13.8 µM
2  O=C(Nc1ccc(F)cc1)C1(c2ccc(-c3cnc(C(F)(F)F)cc3CO)cc2)CCC1  11.9 µM
3  O=C(Nc1ccc(F)cc1)C1(c2ccc(-n3cnc(C4CC4)cc3=O)cc2)COC1  > 60 µM
4  O=C(Nc1ccc(F)cc1)C1(c2ccc(-c3cnc(C(F)(F)F)cc3CO)cc2)COC1  22.8 µM

----------
- PROCEDURE TEXT: Oral bioavailability in dog using spray-dried dispersion at 0.5 mg/kg by LC-MS/MS analysis
- Assay type: ADME, organism-based, Canis lupus familiaris
- MEASUREMENT SETUP: in vivo
OUTCOME MEASURE: bioavailability (%)

> print(dat)
                                test.smiles  units.text  result.number
1  CC(C)(O)c1cc(C(F)(F)F)ncc1-c1ccc(C2(C(=O)Nc3ccc(F)cc3)COC2)cc1           %             50

----------
- MEASURED ON: Indoleamine 2,3-dioxygenase 1 (Homo sapiens)
- Sequence (P14902 whole entry): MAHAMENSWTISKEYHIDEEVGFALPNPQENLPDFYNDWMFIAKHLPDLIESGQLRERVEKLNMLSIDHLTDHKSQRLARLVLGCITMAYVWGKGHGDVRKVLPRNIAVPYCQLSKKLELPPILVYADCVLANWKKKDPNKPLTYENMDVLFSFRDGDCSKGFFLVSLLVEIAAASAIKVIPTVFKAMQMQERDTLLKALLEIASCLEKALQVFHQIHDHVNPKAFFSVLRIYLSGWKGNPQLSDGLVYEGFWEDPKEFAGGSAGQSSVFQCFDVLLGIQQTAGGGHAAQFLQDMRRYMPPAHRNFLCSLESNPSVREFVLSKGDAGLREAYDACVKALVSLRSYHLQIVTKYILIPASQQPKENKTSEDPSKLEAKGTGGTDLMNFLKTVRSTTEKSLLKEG
- PROCEDURE TEXT: Inhibition of IDO1 in IFNgamma/LPS stimulated human whole blood assessed as unbound concentration using kynurenine/tryptophan as substrate preincubated with compound for 15 mins followed by incubation with IFNgamma/LPS for 18 hrs by LC/MS/MS analysis
- Assay type: tissue-based
OUTCOME MEASURE: IC50 (nM)

> print(dat)
                                test.smiles  units.text  result.number
1  Cc1cc(C2CC2)ncc1-c1ccc(C2(C(=O)Nc3ccc(F)cc3)COC2)cc1          nM           0.08
2  O=C(Nc1ccc(F)cc1)C1(c2ccc(-c3cnc(C(F)(F)F)cc3CO)cc2)COC1          nM            2.5
3  CC(C)(O)c1cc(C(F)(F)F)ncc1-c1ccc(C2(C(=O)Nc3ccc(F)cc3)COC2)cc1          nM           0.29
4  O=C(Nc1ccc(F)cc1)C1(c2ccc(-c3ccc(C4CC4)nc3)cc2)COC1          nM            377

Data origin: ChEMBL document CHEMBL5154775
